Biological target: Muscarinic acetylcholine receptor M4 (Homo sapiens)
Test: compounds altering M4/GIRK thallium flux, either direction, primary screen, M4 allosteric agonist project, cell-based, HEK293 M4/GIRK, BTC-AM (AID 625);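 further: thallium influx through GIRK channels coupled to M4 in HEK293 cells with BTC-AM dye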
Conditions: at 10 µM, actives lie on both sides
PROPERTY_MEASURED: fluorescence slope
// return a plain number; no unit text

Worked cases, answers included:
O=C(NCc1ccccc1)/C(=N\O)c1ccccc1    0.00503
CC1(C)Cc2c(C#N)c(N3CCN(C(=O)c4ccco4)CC3)nc(Cc3ccccc3)c2CO1    0.00414
CCOc1ccc2nc(NC(NC(C)=O)(C(=O)OC)C(F)(F)F)sc2c1 (centres undefined)    0.00553
Cc1cc(=O)oc(C)c1C(=O)NCC(C)NC(=O)c1c(C)cc(=O)oc1C (centres undefined)    0.00562
Cc1cc(C)n(CC2CC(=O)N(c3ccc(C)c(Cl)c3)C2=O)n1 (centres undefined)    0.00527

Ask: Give the measured fluorescence slope of "Cc1cc(CCC(=O)O)c(C)cc1CCC(=O)O" .
Result: 0.00588

Ask: Give the measured fluorescence slope of "COC(=O)c1c(C)[nH]c(C(=O)OCc2ccc(F)cc2)c1C" .
Result: 0.00635

Ask: Give the measured fluorescence slope of "CCCCOc1ccccc1C(=O)NCCCCCC(=O)O" .
Result: 0.00571

Ask: Give the measured fluorescence slope of "C=CCc1cccc(/C=N/n2cnnc2)c1O" .
Result: 0.00478

###

Experiment: inhibitors of poly I:C-induced TLR3 signaling, primary screen, cell-based, poly I:C stimulus, luciferase, 10K MLSCN set (AID 602277)
Conditions: HEK293-TLR3 RL24 IRF3 luciferase reporter, at 10 µM, stronger effect = higher value
The following compounds are shown together with reported inhibition values.
Write down the numeric answer in % and omit the unit.

CCOc1cc(C(=O)Nc2c3c(nn2C(C)(C)C)CS(=O)C3)cc(OCC)c1OCC (stereo unspecified)    3.04
CCc1ccc(CCC(=O)Nc2ccc(C)c(C)c2)o1    -50
CCOC(=O)c1oc2ccccc2c1CSc1nnnn1-c1ccc(C)cc1    1.2
O=C(c1ccc2c(c1)OCO2)N1CCCN(C(=O)c2ccc3c(c2)OCO3)CC1    28.5
CCN1C(=O)C2(C(C#N)=C(N)Oc3n[nH]c(C(C)C)c32)c2ccccc21 (stereo unspecified)    21.2
Cc1ccccc1Cc1c(C)nc2c(C(=O)N3CCN(Cc4ccc5c(c4)OCO5)CC3)cnn2c1C    27.9
Cc1ccc(-c2cc(C(=O)O)n[nH]2)o1    14.9
CN(C1CCCCC1)S(=O)(=O)c1ccc(S(=O)(=O)N2CCN(CCC#N)CC2)cc1    15.8
Nc1ncnc2oc(-c3ccco3)c(-c3ccco3)c12    -31.5
c1ccc(-c2ccc(-c3ccccn3)nn2)nc1    70.6

Ask: Give the measured inhibition of "CNC(=O)CSc1nnc(-c2ccc(S(=O)(=O)N3CCCC3)cc2)n1-c1cccc(C)c1C" .
Result: 33.2

Ask: Give the measured inhibition of CC(=O)C1=C(C)NC(=O)NC1c1cccc(O)c1 (stereo unspecified) .
Result: 16

Ask: Give the measured inhibition of "O=C(COC(=O)c1cc(-c2ccco2)nc2ccccc12)NCc1ccc2c(c1)OCO2" .
Result: 11.8

Ask: Give the measured inhibition of "COc1ccc(C2N(C(=O)c3ccccc3)CCN2C(=O)c2ccccc2)cc1" .
Result: 24.3

Ask: Give the measured inhibition of "CN(C)S(=O)(=O)NC(c1ccccc1)c1ccccc1" .
Result: 21.8

###

The following molecules are shown together with reported NADPH fluorescence slope values.
Molecular target: Voltage-gated potassium channel subunit beta-2 (Rattus norvegicus) (UniProt P62483)
Sequence (P62483 whole entry, looked up): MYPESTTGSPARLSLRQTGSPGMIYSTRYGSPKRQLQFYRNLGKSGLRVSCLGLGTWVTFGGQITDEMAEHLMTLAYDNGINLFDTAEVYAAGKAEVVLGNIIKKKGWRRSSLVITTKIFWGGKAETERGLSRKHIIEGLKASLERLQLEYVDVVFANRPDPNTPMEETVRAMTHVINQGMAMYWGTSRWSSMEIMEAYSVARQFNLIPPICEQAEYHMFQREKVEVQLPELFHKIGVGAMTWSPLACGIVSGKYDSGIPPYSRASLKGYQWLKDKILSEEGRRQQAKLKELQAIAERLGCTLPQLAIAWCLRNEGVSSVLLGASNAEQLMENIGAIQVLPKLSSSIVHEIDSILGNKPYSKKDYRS
Test: KvBeta positive modulators, primary screen, biochemical, NADPH fluorescence (AID 623);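 further: fluorescence intensity change per second fitted from 20 to 320 s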
Conditions: Recombinant KvBeta, NADPH fluorescence decrease slope, 10 min; at 10 µM; stronger effect = lower value
// return a plain number; no unit text

COc1cc(=O)[nH]c(=O)n1CC(=O)c1ccccc1    -3.7e-05
CCOC(=O)C1=C(C)Nc2nc(SCC(=O)OC)nn2C1c1cc(F)cc(F)c1 (centres undefined)    -3.9e-05
CCCC(CCC(=O)Nc1ccc(C(=O)OCC)cc1)C(=O)O (centres undefined)    -4.5e-05

Ask: Give the measured NADPH fluorescence slope of "c1ccc(-c2oc3ncnc(NCCN4CCOCC4)c3c2-c2ccccc2)cc1" .
Result: -8.4e-05

###

The following molecules are shown together with reported cell count values.
Assay: inhibitors of TNFa-induced NFkB p65 translocation, primary screen, imaging, HUVEC, MLSMR starter and 10KST1 sets (AID 438);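 further: compound added about 3h40 before a 20 min TNFalpha stimulation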
Conditions: HUVEC TNFa-induced p65 nuclear translocation; measured here: nuclei count (cytotoxicity indicator), at 2.08 µM
// return a plain number; no unit text

Cn1c(SCC(=O)O)nnc1C1CCCCC1    396
C=CCSc1nnc(NC(=O)c2ccc(S(=O)(=O)NCC3CCCO3)cc2)s1 (stereo unspecified)    245

Ask: Give the measured cell count of "Cc1ccc(NC(=O)Cn2nc(C)c3ccccc3c2=O)cc1" .
Result: 576

Ask: Give the measured cell count of "O=C(Nc1ccc2snnc2c1)N1CCN(c2ccccc2)CC1" .
Result: 454

Ask: Give the measured cell count of "O=C(CSc1ncnc2ccccc12)NCCCO" .
Result: 458

Ask: Give the measured cell count of "CCN(CC)S(=O)(=O)c1ccc(NC(=O)Cn2cnc3ccccc3c2=O)cc1" .
Result: 321

Ask: Give the measured cell count of "CCOC(=O)c1ccc(Oc2nc(SC)nc(N(C)C)n2)cc1" .
Result: 467

Ask: Give the measured cell count of "CCCC(=O)Nc1ccccc1-c1nnn(CC(=O)Nc2ccc(OC)cc2)n1" .
Result: 674

Ask: Give the measured cell count of "CCCc1cc(Nc2c(C)n(C)n(-c3ccccc3)c2=O)n2c(nc3ccccc32)c1C#N" .
Result: 336

Ask: Give the measured cell count of "O=C(CNc1ccc(Oc2ccccc2)cc1)N1CCOCC1" .
Result: 622

Ask: Give the measured cell count of "Cc1cc(C(=O)Nc2cccnc2)no1" .
Result: 543

Ask: Give the measured cell count of "COCCn1c(SCc2c(F)cccc2Cl)nc2c1c(=O)[nH]c(=O)n2C" .
Result: 654

Ask: Give the measured cell count of Cc1nc2ccccc2c2oc(C(=O)NCCN3CCCCC3C)cc12 (stereo unspecified) .
Result: 558

Ask: Give the measured cell count of "O=C(NCCc1ccccc1)/C(=N\O)c1ccccc1" .
Result: 555

Ask: Give the measured cell count of "Cn1c(=O)c2ncn(CC(=O)NCCOc3ccc(C(C)(C)C)cc3)c2n(C)c1=O" .
Result: 762

Ask: Give the measured cell count of Cc1ccc(N2CCN(c3ccc(C)cc3)C(CC(=O)O)C2=O)cc1 (stereo unspecified) .
Result: 549

Ask: Give the measured cell count of "CCc1ccc(CN(C)CCc2ccccn2)cc1" .
Result: 590

Ask: Give the measured cell count of CCOC(=O)C(NC(C)=O)(NS(=O)(=O)c1ccccc1)C(F)(F)F (stereo unspecified) .
Result: 537

Ask: Give the measured cell count of "CN(C(=O)COc1cc(=O)n(C)c2ccccc12)c1ccc(Br)cc1" .
Result: 389

Ask: Give the measured cell count of "COc1ccc(-c2nc(C#N)c(N3CCN(c4ccccc4)CC3)o2)cc1" .
Result: 841

Ask: Give the measured cell count of CC(C(=O)Nc1ccccc1-c1ccccc1)N1CCOCC1 (stereo unspecified) .
Result: 555

###

The following compounds are shown together with reported nuclei count values.
Experiment: inhibitors of E-selectin induction by TNFa, primary screen, imaging, HUVEC, immunofluorescence, MLSMR starter and 10KST1 sets (AID 487);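 further: 100% = median nuclei count of all wells on the same plate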
Settings: HUVEC TNFalpha-induced E-selectin immunofluorescence imaging, at 2 µM; measured here: cell number, toxicity
Write down the numeric answer in % and omit the unit.

Worked cases, answers included:
CCCSc1nnc(NC(=O)Nc2ccccc2)s1    184
N#Cc1nc(-c2ccccc2Cl)oc1N1CCOCC1    116
CC(C)c1nnc(SCC(=O)NCc2ccco2)n1C    86.7
CCC1CCCCN1C(=O)CSc1nnc(-c2ccc(OC)cc2)o1 (stereo not given)    113

Ask: Give the measured nuclei count of COCCn1c(SCC(=O)N2CCc3ccccc32)nc2c(c1=O)SC(C)C2 (stereo not given) .
Result: 109

Ask: Give the measured nuclei count of "Cc1c(C(=O)NCCC2=CCCCC2)oc2ccc(S(=O)(=O)N3CCC4(CC3)OCCO4)cc12" .
Result: 106

###

Test: inhibitors of TNFa-induced NFkB p65 translocation, primary screen, imaging, HUVEC, MLSMR starter and 10KST1 sets (AID 438);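 further: compound added about 3h40 before a 20 min TNFalpha stimulation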
Conditions: HUVEC TNFa-induced p65 nuclear translocation; measured here: nuclei count (cytotoxicity indicator), at 2.08 µM
The following molecules are shown together with reported cell count values.
// return a plain number; no unit text

Worked cases, answers included:
CCc1nnc(NC(=O)CSc2nnc(-c3cc4ccccc4cc3O)n2CC)s1    674
CCOC(=O)c1sc(=NC(=O)c2ccc(OC)c(OC)c2)n(C)c1C    642
COc1ccc(CCn2c(=N)c(C(=O)NCc3ccco3)cc3c(=O)n4ccccc4nc32)cc1OC    633
CCOC(=O)c1[nH]nc(N)c1NC(=O)c1ccc(Cl)cc1Cl    554
Cn1c(NCc2ccccc2)nc2c1c(=O)n(Cc1ccccc1)c(=O)n2C    694
Cc1ccc(-c2nn(C)c(=O)c3ccccc23)cc1S(=O)(=O)NCCN1CCOCC1    325

For the next question, use this molecule.
Ask: Give the measured cell count of "COc1ccc(-c2nc3c(n2O)CCC/C3=N\O)cc1" .
Result: 319

Origin of measurements: PubChem BioAssay
